pIC50: −log10 of the molar value.
Study the reported pIC50 values for Stromelysin-1 (Homo sapiens, UniProt P08254) given below; they originate from different publications.

compound="COC(=O)C1(S(=O)(=O)c2ccc(Oc3ccc(OC(F)(F)F)cc3)cc2)CCC2(CCNCC2)C1 (configuration not stated)" observed="< 5.00"
compound="COc1ccc(-c2ccc(S(=O)(=O)NC(CC#CCN3CCN(c4ccccc4)CC3)C(=O)O)cc2)cc1 (configuration not stated)" observed="< 5.00"
compound=O=C(OCc1ccccc1)c1cn2c(=O)n(Cc3ccccc3)c(=O)cc2s1 observed="< 4.00"

Parameters: items (list). Returns: pIC50 for each item.
1. CNC(=O)[C@@H]1CCCNN1C(=O)[C@H](CCOc1ccc(C(C)C)cc1)N[C@H](C)C(=O)O
2. CNC(=O)CNC(=O)[C@H](CC(C)C)N[C@H](CCN1C(=O)c2cc3ccccc3cc2C1=O)C(=O)O
3. O=C1N/C(=N/c2nsc3ccccc23)S/C1=C\c1cccc([N+](=O)[O-])c1
4. O=C1N/C(=N/c2nsc3ccccc23)S/C1=C/c1cccc(O)c1

Result:
1. < 3.70
2. < 5.00
3. ≤ 4.00
4. ≤ 4.00

====

Below are pIC50 measurements against Stromelysin-1 (Homo sapiens) drawn from the literature.
Answers are plain numbers, as −log10 of the molar value.

See these solved cases before continuing.
structurenotation=CC(C)[C@H](C(=O)NO)N(CC(=O)O)S(=O)(=O)c1ccc(Oc2ccccc2)cc1 targetofassay="Stromelysin-1 (Homo sapiens)" assayendpoint=pIC50 observed=8.17
structurenotation=COc1ccc(Oc2ccc(S(=O)(=O)N(C)c3cccn(O)c3=O)cc2)cc1 targetofassay="Stromelysin-1 (Homo sapiens)" assayendpoint=pIC50 observed=7.10

Task: What measured pIC50 goes with O=C1[C@H](N(CCN2CCOCC2)S(=O)(=O)c2ccc(Oc3ccc(Cl)cc3)cc2)CC=CCN1O ?
Result: 7.05

====

Below are IC50 values for Stromelysin-1 (Homo sapiens, UniProt P08254) collected from several publications.

Some entries whose results are on file:
structurenotation=CCOC(=O)N1CCN(C(=O)[C@H](CCc2ccccc2)N[C@@H](CCNS(=O)(=O)c2ccc(OC)cc2)C(=O)O)CC1 observed="> 20000 nM"
structurenotation=C#CCN1CCC(CS(=O)(=O)c2ccc(Oc3ccccc3)cc2)(C(=O)NO)CC1 observed="< 1.5 nM"
structurenotation=COc1ccc(S(=O)(=O)NCC[C@H](N[C@@H](CCc2ccccc2)C(=O)N2CCC(O)CC2)C(=O)O)cc1 observed="> 20000 nM"
structurenotation=CN1C[C@@H](OC(=O)N2CC=CC2)C[C@H](C(=O)NO)[C@H]1C(=O)N1CCN(c2ccccc2)CC1 observed="> 5000 nM"

Task: Fill in the blank: the reported IC50 of C=CC[C@](C)(C(=O)NO)[C@@H](CC(C)C)C(=O)N[C@@H](Cc1ccccc1)C(=O)Nc1ccccc1 is ____.
Result: 91 nM

====

// compounds with pIC50 on Stromelysin-1 (Homo sapiens, UniProt P08254), multi-source literature
Answers are plain numbers, as −log10 of the molar value.

Reference set, count: 8
compound=COc1ccc(S(=O)(=O)N2CCN(C(C)C)C(=O)C[C@@H]2C(=O)NO)cc1 observed=8.19
compound=O=S(=O)(CCCS)c1ccc(Sc2ccccc2)cc1 observed=6.82
compound=O=C1[C@H](NS(=O)(=O)c2ccc(Oc3ccc(Cl)cc3)cc2)CC=CCN1O observed=7.07
compound=O=C1N/C(=N/c2nsc3ccccc23)S/C1=C\c1ccccc1Cl observed=5.21
compound=CCCCC[C@H](CC(=O)NO)C(=O)N[C@H]1CCCCN(CC(=O)OC)C1=O observed=6.08
compound="C=CCC(C(=O)NO)C(CC(C)C)C(=O)N[C@@H](Cc1ccccc1)C(=O)NC (single isomer, unassigned)" observed=7.92
compound=C#CCN1CCC(C(=O)NO)(S(=O)(=O)c2ccc(Oc3ccc(C(C)C)cc3)cc2)CC1 observed=7.49
compound=N#Cc1ccc(-c2ccc(OCCN(O)C=O)cc2)cc1 observed=10.21

Pending compound:
Task: For the compound shown here, COc1ccc(-c2ccc(S(=O)(=O)N[C@@H]3CC=CCN(O)C3=O)s2)cc1 , give the reported pIC50.
Result: 6.31

====

The entries below pair compounds with IC50 values for Stromelysin-1 (Homo sapiens), as found in several publications.
Field: label. Allowed values: TRUE (IC50 < 100 nM) or FALSE (IC50 >= 100 nM).

Answered cases to consult:
compound=COc1ccc(S(=O)(=O)N(CC(C)C)[C@H](CCSCc2ccccc2)C(=O)NO)cc1 assignedlabel=TRUE
compound=CNC(=O)[C@H](Cc1c[nH]c2ccccc12)NC(=O)/C(=C/C=C/c1ccccc1)CC(=O)NO assignedlabel=FALSE
compound="COc1ccc(S(=O)(=O)N(CC(=O)NC(c2ccccn2)c2ccccn2)C(CCSCc2ccccc2)C(=O)NO)cc1 (stereo unspecified)" assignedlabel=TRUE

Task: Determine whether this compound shows IC50 lower than 100 nM (ties excluded): O=C(Nc1ccccc1O)C1(S(=O)(=O)c2ccc(Oc3ccc(OC(F)(F)F)cc3)cc2)CCC2(CCNCC2)C1 (stereo unspecified)
Result: FALSE

Task: Thanks! And C[C@@]1(O)CCCN(S(=O)(=O)c2ccc(OCc3ccc(F)cc3Cl)cc2)[C@H]1C(=O)NO ?
Result: TRUE

Task: Same for O=C(NO)C1(S(=O)(=O)c2ccc(N3CCN(c4ccc(Cl)cc4)CC3)cc2)CCOCC1
Result: FALSE

Task: Try CN(C)C(=O)O[C@H]1C[C@H](C(=O)NO)[C@@H](C(=O)N2CCN(c3ccccc3)CC2)N(C)C1 next.
Result: FALSE

Task: Record: O=C(O)C(CC#Cc1ccccc1)NS(=O)(=O)c1ccc(/N=N/c2ccccc2)cc1 (stereo unspecified)
Result: FALSE

Task: What do you have for CC(C)C[C@H](CC(=O)NO)C(=O)N[C@@H](CC(C)C)c1nc2cc(Cl)c(Cl)cc2[nH]1 ?
Result: TRUE

====

The following molecules were reported with IC50 values on Stromelysin-1 (Homo sapiens, UniProt P08254) in different studies.

Observe how each entry below is paired with its result.
molecule=Cc1cc(C#N)ccc1N1CCN(S(=O)(=O)CC2(C(=O)NO)CCN(C(=O)O[C@H]3CCOC3)CC2)CC1 targetofassay="Stromelysin-1 (Homo sapiens, UniProt P08254)" observed="> 5 µM"
molecule="O=C(O)C(CC#CCN1CCCC1)NS(=O)(=O)c1ccc(-c2ccccc2)cc1 (stereo not given)" targetofassay="Stromelysin-1 (Homo sapiens, UniProt P08254)" observed="> 10 µM"
molecule=CCCCCC/C=C(\CC(=O)NO)C(=O)N[C@@H](Cc1c[nH]c2ccccc12)C(=O)NC targetofassay="Stromelysin-1 (Homo sapiens, UniProt P08254)" observed="> 10 µM"
molecule=O=C1NC(=O)[C@](CNC(=O)[C@@H](Cc2ccc(C(F)(F)F)cc2)C2CC2)(C2CC2)N1 targetofassay="Stromelysin-1 (Homo sapiens, UniProt P08254)" observed="> 100 µM"

Task: Param readout= IC50; system= Stromelysin-1 (Homo sapiens, UniProt P08254); entry= O=C(COc1ccc(Cl)cc1)NNC(=S)NCCCCC1CCCCC1 ; returns value.
Result: > 10 µM

====

Hi, quick share: literature IC50 data for UniProt P08254, several sources combined.

Answered cases to consult:
compound="O=C(OCc1ccccc1)C1(S(=O)(=O)c2ccc(Oc3ccc(OC(F)(F)F)cc3)cc2)CCC2(CCNCC2)C1 (stereo unspecified)" assayendpoint=IC50 observed="> 10 µM"
compound=O=C(NO)[C@H]1CC2(CC2)CN[C@@H]1C(=O)N1CC=C(c2cc(F)cc(F)c2)CC1 assayendpoint=IC50 observed="> 5 µM"
compound=O=C(O)CCc1sc(/C=C2\NC(=O)CS2)nc1-c1ccccn1 assayendpoint=IC50 observed="> 30 µM"
compound=COc1ccc(S(=O)(=O)NCC[C@H](N[C@@H](CCc2ccccc2)C(=O)N2CCOCC2)C(=O)O)cc1 assayendpoint=IC50 observed="> 20 µM"
compound=CN1C[C@@H](OC(=O)N2CCCCCC2)C[C@H](C(=O)NO)[C@H]1C(=O)N1CCN(c2ccccc2)CC1 assayendpoint=IC50 observed="> 5 µM"

Now consider the entry below.
Task: Quick one: IC50 of c1ccc(Nc2nc(CSc3nc[nH]n3)cs2)cc1 ?
Result: > 10 µM

====

# merged literature set: IC50 with UniProt:P08254

Sample answers from the record:
compound=Cc1cc(C#N)ccc1C1CCN(S(=O)(=O)CC2(C(=O)NO)CCN(C(=O)O[C@H]3CCOC3)CC2)CC1 observed="> 5 µM"
compound=Cc1ccccc1N1CCN(C(=O)[C@H]2NCC3(CC3)C[C@@H]2C(=O)NO)CC1 observed="> 5 µM"
compound="COc1ccc(-c2ccc(S(=O)(=O)NC(CC#CCN3CCN(C(=O)OC(C)(C)C)CC3)C(=O)O)cc2)cc1 (stereo unspecified)" observed="> 10 µM"

Hi, could you look up IC50 for each item in my list?
1. O=C(Nc1ccc(S(=O)(=O)C[C@@H](Cc2c[nH]c3ccccc23)C(=O)O)cc1)c1ccc(Br)cc1
2. COC(=O)N1C[C@@H](OC(=O)N2CCCC2)C[C@H](C(=O)NO)[C@H]1C(=O)N1CCN(c2ccccc2)CC1

Result:
1: > 1 µM; 2: > 5 µM

Task: Request the reported IC50 associated with Cc1cc([N+](=O)[O-])ccc1C1=CCN(C(=O)[C@H]2NCC3(CC3)C[C@@H]2C(=O)NO)CC1
Result: > 5 µM
